meta.source: PubChem BioAssay (NCI)

Give growth for every item shown.
# System: KM12 colon
# Measurement description: NCI-60 one-dose screen, 48 h (100 = growth as untreated, 0 = no growth, -100 = all killed)
# Assay setup: 10 µM unless noted
# Description: Growth inhibition of the KM12 human tumor cell line is measured as a screen for anti-cancer activity. Cells are grown in 96 well plates and exposed to the test compound for 48 hours. Compounds are tested at a single concentration, which is 10^-5 M for most compounds. The reported endpoint is percent growth (GI% or GIPRCNT), where numbers from 0 - 100% represent growth inhibition, and numbers from -100% - 0 represent cell death. For example, a value of 40 represents 60% growth inhibition. […]
About 83,000 compounds went through this panel and 20% of them were active in at least one assay; those are over-represented in the sample as a whole. The source made the active and inactive calls. Rule for the calls: active = growth percent below 10; inactive = the rest.

# example entries with known answers
C=C1C(=O)O[C@H]2[C@H]1CC/C(COC(=O)c1cc3cc(F)ccc3[nH]1)=C\CC[C@@]1(C)O[C@@H]21    -48% (active)
CCOC(=O)C(=Cc1cccc(C#N)c1)C(=O)OCC    54.8% (inactive)
COc1cc(/C=C2\CN(S(=O)(=O)c3ccc(C)cc3)C/C(=C\c3cc(CN4CCCCC4)c(O)c(OC)c3)C2=O)cc(CN2CCCCC2)c1O    -85.2% (active)

Can you give me growth for all of these, one by one?
1. COC(=O)c1c2c(n3ccc(C)cc13)C(=O)c1ccccc1C2=O
2. O=C1CCC(C(=O)NN(c2ccccc2)c2ccccc2)N1 (centres undefined)
3. COc1ccc(-c2ccc(-c3ccc(C(=N)N)cn3)s2)cc1

1. 59.4% (inactive)
2. 87.3% (inactive)
3. 61.6% (inactive)

Give me growth for each of these compounds, listed below.
1. N#C/C(=C\c1ccc(-c2ccc(Cl)cc2)o1)c1ccc(Cl)cc1
2. CN(C)c1ccc(C(=NO)c2ccc(N(C)C)cc2)cc1
3. C[C@@H](CO)[C@@H]1CC[C@]2(C(=O)N3CCN(C)CC3)CC[C@]3(C)[C@H](CC[C@@H]4[C@@]5(C)CC[C@H](O)C(C)(C)[C@@H]5CC[C@]43C)[C@@H]12
4. Clc1ccc(-c2nc(-c3c[nH]c4ncccc34)cs2)cc1

["88.9% (inactive)", "13.6% (inactive)", "86% (inactive)", "76.1% [100 µM] (inactive)"]

Value sought for every listed compound: growth.
1. Cc1ccccc1CNc1c2ccccc2nc2ccccc12
2. Cc1cscc(C)c1=S
3. CN(C)c1ccc(-c2cc(-c3ccc(Nc4nc(Nc5ccc(Cl)cc5)nc(Nc5ccc(Cl)cc5)n4)cc3)nc(N)c2C#N)cc1
4. O=C1/C(=C/c2ccccc2[N+](=O)[O-])COc2ccc(O)cc21

16.9% (inactive)
104% (inactive)
74.1% (inactive)
25.4% (inactive)

---

# Tested on: SF-539 CNS
# Measurement description: NCI-60 one-dose screen, 48 h
# Assay setup: 10 µM unless noted
About 83,000 compounds went through this panel and 20% of them were active in at least one assay; those are over-represented in the sample as a whole. Calls of active or inactive are those of the source. The calls were made as follows: active = growth percent below 10; inactive = the rest.
Hi! Could you answer with just one of these? active, inactive

O=C(CN1C(=O)NC2NC(=O)NC21)N/N=C/c1ccc(Cl)cc1Cl (stereo unspecified)    inactive
O=C(N/N=C/c1ccc([N+](=O)[O-])cc1)c1ccc2nc(-c3ccc(Cl)cc3)[nH]c2c1    inactive
O=C1CCC(C(=O)NN(c2ccccc2)c2ccccc2)N1 (stereo unspecified)    inactive
COc1cc2c(c(OC)c1OC)C(=O)CC(c1cccc(NC(=O)c3ccccc3Br)c1)O2 (stereo unspecified)    inactive
COc1ccc(C/C(C)=C(\c2ccc(O)cc2)c2ccc(OCCN3CCCC3)cc2)cc1    inactive
Cc1c(Cl)cccc1C(=O)Nc1nc2c(s1)CN(C(=O)Nc1cccc(C(F)(F)F)c1)CC2    active
Oc1c(CN2CCCC2)cc(COCc2ccccc2)c2cccnc12    active
COc1ccc2nc3cc(Cl)ccc3c(NCCN)c2c1    active

What classification did CSCCC(NC(=O)c1ccccc1)C(=O)N/N=C1\S/C(=C/c2ccc(Cl)cc2)C(=O)N1C (stereo unspecified) end up with in this test? inactive

Recorded call for `Fc1ccc(COc2ccc(Nc3ncnc4sc5c(c34)CCCC5)cc2)cc1` ? inactive

How was `N#C/C(=C\c1ccc(-c2ccc(Cl)cc2)o1)c1ccc(Cl)cc1` classified in this test? inactive

Per the assay record, what outcome was assigned to `Cc1cscc(C)c1=S` ? inactive

Recorded test call requested for COc1ccc(C(c2cc(OC)c(OC)c(OC)c2)N2CCCC2)cc1 (stereo unspecified) inactive

---

# System: HCT-15 colon
# Measurement description: NCI-60 one-dose screen, 48 h (100 = growth as untreated, 0 = no growth, -100 = all killed)
# Assay setup: 10 µM unless noted
This is part of a sample that, as a whole, favours compounds with a hit. Of some 83,000 tested, about 20% had one in any assay.
Decide by growth: equal to or exceeding 70% means 1 (yes), less means 0 (no).

Here's what some known entries look like.
CCn1c2ccc(O)cc2c2c(C)c3c[n+](C(C)C)ccc3c(C)c21    0 (no)
CO[C@H](C(=O)[C@@H](O)[C@@H](C)O)[C@@H]1Cc2cc3cc(O[C@H]4C[C@@H](O[C@H]5C[C@@H](O)[C@H](O)C(C)O5)[C@H](O)C(C)O4)c(C)c(O)c3c(O)c2C(=O)[C@H]1O[C@H]1C[C@@H](O[C@H]2C[C@@H](O[C@H]3C[C@@H](OC)[C@H](O)C(C)O3)[C@@H](O)C(C)O2)C(O)(O)C(C)O1 (stereo partly specified)    0 (no)
Cn1cc(-c2nn3cc(-c4ccccc4)nc3s2)c2ccccc21    0 (no)
CNCc1cccc2c1OCCOCCN(C)C(=O)CN(C)S(=O)(=O)c1ccc(cc1)-c1cnc(N)c(n1)C(=O)N2    0 (no)
O=C(CCCCCCN1CC(=O)N2[C@@H](c3ccc(Cl)cc3)c3[nH]c4ccccc4c3C[C@H]2C1=O)NO    1 (yes)

Could you tell me if the measured growth of `COc1cccc(Nc2ccnc3[nH]c4ccc([N+](=O)[O-])cc4c23)c1` reaches 70% or more? 0 (no)

---

# Tested on: TK-10 renal
# Measurement description: NCI-60 one-dose screen, 48 h (100 = growth as untreated, 0 = no growth, -100 = all killed)
# Assay setup: 10 µM unless noted
About 83,000 compounds went through this panel and 20% of them were active in at least one assay; those are over-represented in the sample as a whole.
Value kind: growth (%)
Numbers only, in %.

COc1cc(Nc2c3ccc(Cl)cc3nc3ccc(OC)cc23)c2ncccc2c1    44.7

Report growth for each item below.
1. CC(=O)N(Cc1ccccc1)c1nc2ccc(O)c(CN(C)C)c2s1
2. C=C1C(=O)O[C@H]2[C@H]1CC/C(COC(=O)c1cc3cc(F)ccc3[nH]1)=C\CC[C@@]1(C)O[C@@H]21
3. COc1ccc(NC(=O)c2sc3nc4c(cc3c2N)CCCC4)cc1
4. Cn1ncc2ccc(-c3nc(-c4ccccc4)[nH]c3-c3n[nH]c(=O)n3C3CC3)cc21
5. Cn1cc(-c2nc(-c3c[nH]c4ccncc34)cs2)c2cc(Br)ccc21

[99.6, -94.9, 38.8, 103, -84]

Could I get growth for every one of these entries?
1. COc1ccc(Nc2ncccc2NC(=O)c2cn(Cc3cccc(Oc4ccccc4)c3)nn2)cc1OC
2. CCNC(=O)Oc1ccc(/C(=C(/C)Cc2ccc(OC)cc2)c2ccc(OCCN3CCCC3)cc2)cc1
3. Cc1cc(N2CCCCC2)nc(N2CCN(CC(=O)Nc3ccc4c(ccn4Cc4ccccc4)c3)CC2)n1
4. Cc1ccc(S(=O)(=O)n2cc(C3C(Cl)C(=O)N3c3ccc(N4CCOCC4=O)cc3)c3ccccc32)cc1 (stereo not given)

1. 96.5
2. 88.1
3. 84
4. 88

// each compound listed below needs its growth
1. CN1CCN(Cc2ccc(NC(=O)c3cncc(C#Cc4cnn5ccccc45)c3)cc2C(F)(F)F)CC1
2. Nc1c(C(=O)Nc2cccc3ncccc23)sc2nc3c(cc12)C(=O)CCC3
3. COc1cccc(C(=O)OCC(O)C(=O)NC23CC4CC(CC(C4)C2)C3)c1 (stereo not given)
4. N#C/C(=C\c1ccc(-c2ccc(Cl)cc2)o1)c1ccc(Cl)cc1

1. 7.73
2. 76.8
3. 96.4
4. 14.6

Provide growth values for the following items, in order.
1. O=C1CC2C=CCN2C=C1NC(=O)C1CCCCC1 (stereo not given)
2. CN1C(=O)/C(=C/c2ccc(C(=O)Nc3ncc(Cc4ccc(F)cc4)s3)cc2)SC1=S
3. CCOC(=O)c1ccc2c(c1)c1c(C)c3ccncc3c(C)c1n2C
4. N=C(N)SCc1cccc2c(CSC(=N)N)cccc12

1: 90.6; 2: 53.5; 3: 2.52; 4: 106

For the 4 compounds below, give their growth values.
1. COc1ccc(C2CC(c3ccc4c(c3)OCO4)=Nc3c(N)ncnc3N2)cc1 (stereo not given)
2. CC(=O)Nc1c(Cl)cc(Cl)c2c1Cc1cc([N+](=O)[O-])ccc1-2
3. CC[C@@H](c1ccc2cc(OC)ccc2c1)C(C)(C)C(=O)F
4. CCn1cc(C(=O)N/N=C/c2ccc(Br)cc2)c(=O)c2cc(F)c(N3CCNC(C)C3)c(F)c21 (stereo not given)

1: 118; 2: 99.4; 3: 126; 4: 99.6

Okay, here is my list. What is growth for each of these?
1. CC1CN=C(c2cccc(-c3ccc(-c4ccccc4)o3)c2)N1 (stereo not given)
2. Cc1ccc(/C=C/C(=O)c2ccc(NC(=O)CSc3nc4c([nH]3)c(=O)n(C)c(=O)n4C)cc2)c(C)c1
3. O=C(O)c1cn(C2CC2)c2cc(N3CCN(C(=O)N/N=C/c4ccccc4)CC3)c(F)cc2c1=O
4. COc1cccc(/C=C/C(=O)c2cc3c(N)c(C(=O)Nc4ccccc4C)sc3nc2C)c1
5. O=C1/C(=C/c2ccc(Br)cc2)COc2ccc(O)c(O)c21
6. C[C@@H]1CC[C@@]2(OC1)O[C@H]1C[C@H]3[C@@H]4CC=C5C[C@@H](O[C@@H]6O[C@H](CO)[C@@H](O[C@@H]7O[C@@H](CO)[C@H](O)[C@H]7O)[C@H](O)[C@H]6O[C@@H]6O[C@@H](C)[C@H](O)[C@@H](O)[C@H]6O)CC[C@]5(C)[C@H]4CC[C@]3(C)[C@H]1[C@@H]2C
7. CC(C)(C)C(=O)/C=C/c1ccc([N+](=O)[O-])cc1

30.1
83.5
96.5
74.1
4.99
-81.2
91.4

What the record says about CO[C@H](C(=O)[C@@H](O)[C@@H](C)O)[C@@H]1Cc2cc3cc(O[C@H]4C[C@@H](O[C@H]5C[C@@H](O)[C@H](O)C(C)O5)[C@H](O)C(C)O4)c(C)c(O)c3c(O)c2C(=O)[C@H]1O[C@H]1C[C@@H](O[C@H]2C[C@@H](O[C@H]3C[C@@H](OC)[C@H](O)C(C)O3)[C@@H](O)C(C)O2)C(O)(O)C(C)O1 (stereo not given in full) : growth is 12.1
